Please respond with reported protein stability index for every item in the list.
B1: CAMK2A (parent)
chain: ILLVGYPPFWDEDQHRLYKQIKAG

- Variants of: B1
- test_summary: protein stability index of a GFP-peptide fusion (GPS, HEK-293T) (PSI 1-6); higher = more stable;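 also: lentivirally expressed fusions sorted by FACS into six bins by GFP to DsRed ratio, PSI derived from sequencing read proportions per bin multiplied by bin number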
- settings: c terminus: a fixed tail appended
Give bare numbers.

Example results:
Y18N :: 2.05
P8E :: 2.1

Answer for every listed entry: what is its protein stability index? The entries follow.
1. D13M
2. V4P
3. L3H
4. F9L
5. E12F

Output:
[3.08, 1.73, 2.24, 2.27, 2.03]
